Data provenance: patent US20260258115A1

# target.or.test.system: RSV prefusion F (preF), subtype A (respiratory syncytial virus, subtype A, UniProt P03420 26-513)
# experimental.protocol: BLI, IgG
pKd: −log10 of the molar value.
Mark 1 for reported pKd of 9 or greater; mark 0 for anything smaller.

Problem: Does ADI-20974 (antibody, V domains shown) VH: EVQLVESGGGLVKPGGSLRLSCAASGFSFSSYQINWVRQAPGKGLEWVSSISGGSSYTDYADSIKGRFTISRDNAKKSAFLQMKSLRADDTAVYYCARALMATAGGLAFDIWGQGTMVTVSS VL: QPVLTQPPSVSGAPGQRVTISCTGSGSNIGAGYDVHWYQQVPGTAPKLLILRNTNRPSGVPDRFSGSKSGTSASLAITGLQAEDEADYYCQSYDRSLSVVFGGGTKLTVL have a reported pKd of at least 9?
Solution: 1

Problem: Try this binder too: ADI-14410 (antibody, V domains shown, also called Ab 76) VH: QVQLQQWGAGLLKPSETLSLTCAIYSGSFSGYYWSWIRQPPGKGLEWIGQINYSGSAYYTPSLKSRVTISVDTSKNQFSLKLSSVTAADTAVYYCARVRITMVQGAIVPCAIDVWGQGTTVTVSS VL: SYELTQPPSASGTPGQRVTISCSGSSSNIESNFVYWYQQLPGTAPKLLIHRNDQRPSGVPDRFSGSKSGTSASLAISGLRSEDEADYSCAAWDDSLSGVVFGGGTKVTVL
Solution: 0

Problem: Now consider ADI-21052 (antibody, V domains shown, also called Ab 300) VH: QVQLVQSGAEVKKPGASVKVSCKASGYTFTSYGISWVRQAPGQGLEWMGWISAYNGNTNYAQNLQGRVTMTTDTSTSTAYMELRSLRSDDTAMYYCARDAFSRVGYWYFDLWGRGTLVTVSS VL: SYELTQPPSVSVAPGQAARITCGGNNIGSKTVHWYQQKPSQAPVLVVYDDSDRPSGIPERFSGSNSGNTATLTISRVEAGDEADYYCQVWDSSGDHPVFGGGTKLTVL .
Solution: 1

Problem: Ok, now ADI-21050 (antibody, V domains shown) VH: QVQLVQSGAEVKKPGASVKVSCTASGYTFANNGISWVRQAPGQGLEWMGWISAYNGNTKYAQTVQGRVTLTTDTSTSTAYMELRSLTSDDTAVYYCAREMGVDAAATFDYWGQGTLVTVSS VL: EIVMTQSPLFLSVTLGQPASISCRSSQSLVYSDTNTYLTWFQQRPGQSPRRLIYKVSNRDSGVPDRFSGSGSGTYFTLKISRVEAEDIGVYYCMQAIHWPRTFGQGTKLEIK
Solution: 1

Problem: ADI-21037 (antibody, V domains shown) VH: QVQLVQSGGGVVQPGRSLRLSCAASGFPFSSYAMHWVRQAPGKGLEWVAVIWYPGGEKYSADSVTGRFTISRDNSKNTLYLQMSSLRVEDTAVYYCARRSVGAFDYWGQGTLVTVSS VL: DIQMTQSPLSLPVTPGEPASISCRSSQSLLNSNGYNYLDWYLQKPGQSPQVLIYLGSHRASGVPDRFSGSGSGTDFTLRISRVEAEDVGVYYCMQAVQTPYTFGQGTKVEIK , same question.
Solution: 0

Problem: Also ADI-21051 (antibody, V domains shown) VH: QVQLVESGPGLVRPSQTLSLTCNVSGDFISRGTYYWSWIRQSAGKGLEWIGRIYTSGITDYSPSLKSRVTISVDTSKNQFFLKLASVTAADTAVYYCARGRGYYDSPWGQGTLVTVSS VL: ETTLTQSPATLSLSPGERATLSCRASESVSTFLGWYQQKPGQAPRLLIYDASNRASGVPARFSGSGSGTDFTLTISSLEPEDFAVYYCQLRNKWLTFGPGTKVDIK ?
Solution: 1

Problem: Do the same for ADI-20982 (antibody, V domains shown) VH: EVQLVESGPGLVKPSQTLSLTCSVSGVSISRGSYYWSWIRQPAGGGLEWIGRIYTSGVTRYNPSLESRVTISLDSSQNQFFLRLSSVTAADTAVYYCATRESASYSSGPDAFDIWGQGTTVTVSS VL: DIQMTQSPSTLSASVGDRVIITCRASQSVNSWLAWYQQKPGKAPKLLIYQASSLESGVPSRFSGSGSGTEFTLTINSLQPDDFATYYCQQYKTFSRPFGQGTKVEIK please
Solution: 0

Problem: Repeat with ADI-14593 (antibody, V domains shown) VH: QVQLVQSGAEVKKPGESLKISCKGSGYSFSSYWVAWVRQMPGKGLEWMGIIYPADSDTRYSPSFQGQVTISADKSDSTAYLQWGSLKASDTAMYYCARSLYGSGDYFDYWGQGTLVTVSS VL: NFMLTQPHSVSESPGRTVIISCTRSSGSIATNYVQWYQQRPGSAPTTVIYEDNQRPSGVPDRFSGSIDSSSNSASLTISGLKTEDEADYYCQSYGSGDVVFGGGTKVTVL
Solution: 0

Problem: And for ADI-14578 (antibody, V domains shown) VH: QVQLVQSGAEVKKPGSSVKVSCKASGGTFNNYAINWVRQAPGQGLEWMGGIIPMFGTANYAQKFQGRVTMTADESTSTAYMELSSLRSEDTAVYYCASSQIFVGGNYYKLEFDNWGQGTLVTVSS VL: QSVLTQPPSVSAAPGQKVTISCSGSNSNIGYNDVSWYQQLPGTAPQLLIYDNNKRTSGIPDRFSGSKFGTSATLGITGLQTGDEADYYCGTWDSSLSTVIFGGGTKLTVL ?
Solution: 0
